Subject Of Test: E3 ubiquitin-protein ligase XIAP (Homo sapiens) (UniProt P98170)
Sequence (P98170 whole entry, looked up): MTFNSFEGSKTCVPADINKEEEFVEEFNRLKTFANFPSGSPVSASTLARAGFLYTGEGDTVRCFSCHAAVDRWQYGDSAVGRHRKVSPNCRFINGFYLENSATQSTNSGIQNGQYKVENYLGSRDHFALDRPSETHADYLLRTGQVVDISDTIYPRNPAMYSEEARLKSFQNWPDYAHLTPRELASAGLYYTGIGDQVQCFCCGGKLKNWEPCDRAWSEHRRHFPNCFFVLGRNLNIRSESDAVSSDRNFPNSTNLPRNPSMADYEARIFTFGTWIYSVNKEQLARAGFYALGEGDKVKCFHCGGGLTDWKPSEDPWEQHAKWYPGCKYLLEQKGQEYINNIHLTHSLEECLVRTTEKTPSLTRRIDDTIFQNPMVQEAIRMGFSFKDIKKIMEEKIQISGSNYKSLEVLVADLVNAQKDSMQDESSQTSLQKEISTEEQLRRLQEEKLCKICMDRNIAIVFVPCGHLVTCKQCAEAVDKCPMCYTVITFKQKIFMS
Assay Overview: XIAP binders, primary screen, biophysical, small-molecule microarray, fluorescence 635 nm (AID 1181);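 note: score merges 667 nm emission and signal to noise over triplicate slides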
Assay Context: small-molecule microarray binding, higher = more signal

| Molecule | Subject Of Test | composite z-score |
| --- | --- | --- |
| COc1ccc(CCNC(=O)[C@@]2(Sc3ccc(C)cc3)CC(=O)N(C3CCCCC3)[C@@H]2c2ccc(CO)cc2I)cc1 | E3 ubiquitin-protein ligase XIAP (Homo sapiens) (UniProt P98170) | -0.276 |
| COc1ccc(NN2C(C(O)c3ccc([N+](=O)[O-])cc3)C=CC3C(=O)N(C4CCCCC4)C(=O)C32)cc1 (stereo not given) | E3 ubiquitin-protein ligase XIAP (Homo sapiens) (UniProt P98170) | 0.209 |
| COc1ccc([Si](C)(C)[C@H]2[C@H](CCO)O[C@@]3(C(=O)N(C)c4c(Br)cc(C)cc43)[C@@H]2C)cc1 | E3 ubiquitin-protein ligase XIAP (Homo sapiens) (UniProt P98170) | 0.184 |
| CCCC[C@H]1OB(O)C[C@H]2C1=C(COc1ccccc1)C[C@H]1C(=O)N(C)C(=O)[C@H]12 | E3 ubiquitin-protein ligase XIAP (Homo sapiens) (UniProt P98170) | -0.031 |
| CCOC(=O)C1=CCC(c2ccc(C)cc2)N(S(=O)(=O)c2ccc(C)cc2)C1 (stereo not given) | E3 ubiquitin-protein ligase XIAP (Homo sapiens) (UniProt P98170) | 0.128 |
| C=CCN(Cc1ccccc1)C(=O)C(c1cccs1)N(CCOCCO)C(=O)/C=C\C(=O)O (stereo not given) | E3 ubiquitin-protein ligase XIAP (Homo sapiens) (UniProt P98170) | 0.223 |
| C=CCNC(=O)[C@@H]1[C@H]2C(=O)O[C@H](c3ccccc3)[C@H](c3ccccc3)N2[C@H](c2ccccc2OCCO)[C@@]12C(=O)N(C(=O)OCCOC)c1ccc(C#CCNC(N)=O)cc12 | E3 ubiquitin-protein ligase XIAP (Homo sapiens) (UniProt P98170) | 0.171 |
| COCCOC(=O)N1C(=O)[C@@]2(c3cc(C#CC4=CCCCC4)ccc31)[C@H](C(=O)N1CCc3cc(OC)c(OC)cc3C1)[C@H]1C(=O)O[C@H](c3ccccc3)[C@H](c3ccccc3)N1[C@@H]2c1ccc(OCCO)cc1 | E3 ubiquitin-protein ligase XIAP (Homo sapiens) (UniProt P98170) | -0.139 |
| COC(=O)[C@@]1(Cc2ccccc2)[C@H]2c3cc(C(=O)N(C)C)n(CCSCCO)c3C[C@H]2CN1C(=O)c1ccccc1 | E3 ubiquitin-protein ligase XIAP (Homo sapiens) (UniProt P98170) | 0.212 |
| COCCOC(=O)N1C(=O)[C@@]2(c3cc(C#CCNC(N)=O)ccc31)[C@H](C(=O)NC[C@H](O)c1ccccc1)[C@H]1C(=O)O[C@H](c3ccccc3)[C@H](c3ccccc3)N1[C@@H]2c1ccccc1OCCO | E3 ubiquitin-protein ligase XIAP (Homo sapiens) (UniProt P98170) | 0.108 |
| CC(C)c1ccc(NN2C(C(O)c3cc(C(F)(F)F)cc(C(F)(F)F)c3)C=CC3C(=O)N(c4ccccc4)C(=O)C32)cc1 (stereo not given) | E3 ubiquitin-protein ligase XIAP (Homo sapiens) (UniProt P98170) | 0.0813 |
| CC(C)(C)OC(=O)CC[C@]1(C(=O)O)N=C(c2ccc(OCCCO)cc2)O[C@H]1c1ccccc1N=[N+]=[N-] | E3 ubiquitin-protein ligase XIAP (Homo sapiens) (UniProt P98170) | 0.0989 |
| C#CCNC(=O)[C@H](Cc1ccccc1)NC(=O)CCC(=O)O | E3 ubiquitin-protein ligase XIAP (Homo sapiens) (UniProt P98170) | -0.239 |
| O=C1NCC(=O)N2[C@@H]1C[C@@H](C(=O)O)[C@H]2c1cccc(OCCO)c1 | E3 ubiquitin-protein ligase XIAP (Homo sapiens) (UniProt P98170) | 3.93 |
| COCC(=C=CC[C@H](O)c1ccccc1OCCO)C[C@H](O)c1cc(Cl)cc(Cl)c1O | E3 ubiquitin-protein ligase XIAP (Homo sapiens) (UniProt P98170) | -0.0559 |

* * *

System: Human papillomavirus type 1a protein E7 (residues 44-93)
Assay Overview: HPV1a E7 fragment binders on microarrays, primary screen, biochemical, small-molecule microarray, residues 44-93, 635 nm fluorescence (AID 1108);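 note: E7 fragment applied at 1 µg/mL in TBST for 1 h at 4 C; score combines spot fluorescence with its signal to noise ratio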
Assay Context: small-molecule microarray binding, fluorescence 635 nm; higher = more signal
Quantity Measured: composite z-score

| Molecule | Quantitative Readout |
| --- | --- |
| CN(C)CCCNC(=O)[C@@]1(c2ccc([N+](=O)[O-])cc2)CC(=O)N(C2CCCCC2)[C@@H]1c1ccc(CO)cc1I | 1.41 |
| CN(C)C(=O)[C@@]1(Cc2ccccc2CN=[N+]=[N-])N=C(c2ccc(OCCCO)cc2)O[C@H]1c1ccccc1 | 0.993 |
| COC(=O)[C@@]1(Cc2ccc(F)cc2)[C@H]2c3cc(C(=O)N4CCCC4)n(Cc4cc(C)n(C)n4)c3C[C@H]2CN1C(=O)c1ccccc1 | 0.95 |
| CC(C)(C)OC(=O)CC[C@@]1(C(=O)NCC(O)CO)N=C(c2ccc(OCCCO)cc2)O[C@@H]1c1ccccc1N=[N+]=[N-] (stereo partly drawn) | 1.47 |
| Cc1ccc(S[C@]2(C(=O)NCCN3CCOCC3)CC(=O)N(Cc3ccccc3)[C@@H]2c2ccc(CO)cc2I)cc1 | 0.0104 |
| O=C1OCC=C[C@H]2OC34C=CCN(c5ccc6ccccc6c5)C(=O)[C@H]3N(CCCCCCO)C(=O)[C@@H]4[C@@H]12 (stereo partly drawn) | -0.925 |
| C=CCOC(=O)[C@H]1[C@@H]2C(=O)O[C@@H](c3ccccc3)[C@@H](c3ccccc3)N2[C@@H](c2ccc(OCCOC(=O)[C@H]3C[C@H]4C(=O)N5CCC[C@H]5C(=O)N4[C@H]3c3ccc(O)cc3)cc2)[C@]12C(=O)Nc1ccccc12 | 1.45 |
| COCC(=C=CC[C@H](O)c1ccccc1OCCO)C[C@H](O)c1cc(Cl)cc(Cl)c1O | 1.31 |
| C=C(COC)/C(=C/C[C@@H](OC(C)=O)c1ccc(OCCO)cc1)c1cc(C(=O)OC)ccc1OC | 1.35 |
| O=C1[C@H]2C=C(Br)[C@H](C[C@@H]2c2ccccc2)[C@@]12CO2 | 0.235 |
| COCCOC(=O)N1C(=O)[C@@]2(c3ccccc31)[C@H](c1ccccc1OCCO)N1[C@H](c3ccccc3)[C@H](c3ccccc3)OC(=O)[C@H]1[C@@H]2C(=O)Nc1nc2ccccc2s1 | 0.484 |
| C=CCOC(=O)[C@@H]1[C@H]2C(=O)O[C@H](c3ccccc3)[C@H](c3ccccc3)N2[C@H](c2ccc(OCCOC(=O)[C@@H]3C[C@@H]4C(=O)N[C@@H](Cc5ccccc5)C(=O)N4[C@@H]3c3ccc(O)cc3)cc2)[C@@]12C(=O)Nc1ccc(I)cc12 | 1.38 |
| [N-]=[N+]=NCc1ccccc1[C@@H]1OC(c2ccc(OCCCO)cc2)=N[C@]1(CCS(=O)(=O)c1ccccc1)C(=O)NCCN1CCOCC1 | 1.5 |

* * *

Assay Overview: S. cerevisiae RM11-1a growth modifiers, primary screen, strain RM11-1a, OD600, basal, 24 h (AID 1177);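 note: cultures grown under basal conditions with no added stressor; test concentration not given here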
Assay Context: OD600, 24 h, higher = more signal, called active from +8 up or from −8 down
Quantity Measured: z-score

| Molecule | Quantity Measured | Quantitative Readout |
| --- | --- | --- |
| COCCOC(=O)N1C(=O)[C@@]2(c3cc(C#CCCO)ccc31)[C@H](C(=O)Nc1nc3ccccc3s1)[C@H]1C(=O)O[C@H](c3ccccc3)[C@H](c3ccccc3)N1[C@@H]2c1ccc(OCCO)cc1 | z-score | 2.33 |
| [N-]=[N+]=NCc1ccccc1C[C@@]1(C(=O)NCC(O)CO)N=C(c2ccc(OCCCO)cc2)O[C@@H]1c1ccccc1N=[N+]=[N-] (some centres undefined) | z-score | 0.977 |
| CN1C(=O)C2C=CC(C(O)c3cc(C(F)(F)F)cc(C(F)(F)F)c3)N(N3CCCCC3)C2C1=O (centres undefined) | z-score | 2.29 |
| C=CCN(Cc1ccccc1)C(=O)C(c1cccs1)N(CCOCCO)C(=O)/C=C\C(=O)O (centres undefined) | z-score | -0.947 |

* * *

Subject Of Test: E3 ubiquitin-protein ligase XIAP (Homo sapiens) (UniProt P98170)
Assay Overview: XIAP binders, primary screen, biophysical, small-molecule microarray, fluorescence 635 nm (AID 1181);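 note: score merges 667 nm emission and signal to noise over triplicate slides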
Assay Context: small-molecule microarray binding, higher = more signal

| Compound | composite z-score |
| --- | --- |
| COC(=O)[C@@]1(Cc2ccc(OC)cc2)[C@H]2c3cc(C(=O)N(C)C)n(CCN4CNCC4=O)c3C[C@H]2CN1C(=O)c1ccccc1 | 0.597 |
| COC(=O)[C@@]1(Cc2ccc(F)cc2)[C@H]2c3cc(C(=O)N(C)C)n(CC4CC4)c3C[C@H]2CN1C(=O)c1ccccc1 | 0.454 |
| O=C1OCCC/C=C\[C@H]2OC34C=CCN(Cn5nnc6ccccc65)C(=O)[C@H]3N(CCO)C(=O)[C@@H]4C12 (some centres undefined) | 0.213 |
| CC(=O)N1Cc2ccccc2C[C@@]2(COC(c3ccc(OCCCO)cc3)=N2)C1=O | 1.2 |
